test: solvent given as SMILES; details: in CCCCCC
Field: label. Allowed values: 1.0 (emission maximum < 400 nm) or 0.0 (emission maximum >= 400 nm).

molecule	qualitative.label
CN(C)c1ccc(/C=C/c2nc3ccccc3s2)cc1	0.0

query: Does the reported emission maximum of the following molecule sit strictly below 400 nm? CN(C)c1ccc(-c2ccc(-c3ccc(N(C)C)cc3)c3nc(-c4ccccc4)c(-c4ccccc4)nc23)cc1
result: 0.0

query: Does the reported emission maximum of the following molecule sit strictly below 400 nm? Nc1ccc(/C=C/c2ccccc2)cc1
result: 1.0

query: Does the reported emission maximum of the following molecule sit strictly below 400 nm? N#Cc1c(-n2c3ccccc3c3ccccc32)c(-n2c3ccccc3c3ccccc32)c(-n2c3ccccc3c3ccccc32)c(-n2c3ccccc3c3ccccc32)c1-n1c2ccccc2c2ccccc21
result: 0.0

query: Does the reported emission maximum of the following molecule sit strictly below 400 nm? CCC1(CC)c2ccccc2-c2c1c1c(c3c2C(CC)(CC)c2cc(B(c4c(C)cc(C)cc4C)c4c(C)cc(C)cc4C)ccc2-3)C(CC)(CC)c2cc(B(c3c(C)cc(C)cc3C)c3c(C)cc(C)cc3C)ccc2-1
result: 1.0

query: Does the reported emission maximum of the following molecule sit strictly below 400 nm? CC(C)[Si](C#Cc1c2nc3c(nc2c(C#C[Si](C(C)C)(C(C)C)C(C)C)c2nc4ccccc4nc12)C1c2ccccc2C3c2ccccc21)(C(C)C)C(C)C
result: 0.0
